System: EPHB2
conditions: concentration: 1 μM, replicates: in singlicate; n = 1
Recorded %Inh for the following molecules
Your answer is read as %, so omit the unit and give the number.

Look over these answered cases.
Exercise: Provide %Inh, tested on EPHB2, for `O=C1NC(=O)C(N2CCc3ccccc32)=C1c1ccccc1Cl` .
Key: 0

Exercise: Provide %Inh, tested on EPHB2, for `COC(=O)c1c(-c2ccccc2)c2cc(OC)ccc2c(=O)n1Cc1ccccc1` .
Key: 23

Exercise: Provide %Inh, tested on EPHB2, for COc1cc(Nc2nccc(N3CCC(NC(=O)Nc4cc(C)ccc4C)C3)n2)cc(OC)c1OC (centres unmarked) .
Key: 0

Exercise: Provide %Inh, tested on EPHB2, for `COc1ccc(C2=C(Nc3cccc(C(=O)O)c3)C(=O)NC2=O)cc1` .
Key: 9

Please turn your attention to the following entry.
Exercise: Provide %Inh, tested on EPHB2, for `Cc1cccc(-c2nc(C)cc(Nc3ccncc3)n2)n1` .
Key: 0

====

Recorded %Inh for the following compounds
Tested on: TNNI3K
conditions: concentration: 1 μM, replicates: in singlicate; n = 1
Your answer is read as %, so omit the unit and give the number.

Look over these answered cases.
Exercise: Write down %Inh measured for item Cc1cccc(-c2cc(Nc3ccncc3)c3ccccc3n2)n1 [GSK223675]
Key: 0

Exercise: Write down %Inh measured for item Cc1ccc(-c2cc(-c3c[nH]nc3-c3ccccn3)ccn2)cc1 [GW684088]
Key: 0

Exercise: Write down %Inh measured for item `Cn1ccc2ncnc(Oc3ccc(NC(=O)Nc4ccccc4)cc3)c21`
Key: 0

Exercise: Write down %Inh measured for item COc1cccc(-c2cc(-c3c[nH]nc3-c3ccccn3)ccn2)c1 [GW680338]
Key: 9

***
Exercise: Write down %Inh measured for item CCn1c(-c2ccccn2)nc2cnccc21 [SB-736398]
Key: 0

Exercise: Write down %Inh measured for item `Cc1cccc(-c2nc(-c3ccc(S(C)(=O)=O)cc3)sc2-c2ccnc(NCCc3ccccc3)c2)c1`
Key: 0

Exercise: Write down %Inh measured for item CC1=C(C(=O)Nc2cc3cn[nH]c3cc2F)C(c2ccc(C(F)(F)F)cc2)CC(=O)N1 (stereo not drawn) [GSK429286]
Key: 3

Exercise: Write down %Inh measured for item O=S(=O)(c1ccc(-c2ccnc3[nH]ccc23)cc1)N1CCCC1 [GSK846226]
Key: 3

Exercise: Write down %Inh measured for item O=C(Nc1n[nH]c2nc(-c3nccs3)c(Br)cc12)C1CCCC1 [SB-742609]
Key: 6

====

pKd: −log10 of the molar value.
Entries with reported pKd on AKT2

Exercise: Provide pKd, tested on AKT2, for CS(=O)(=O)c1ccc(-c2nc3n(c2-c2ccncc2)CCC3)cc1 [SKF-105942] .
Key: < 5.00

Please turn your attention to the following entry.
Exercise: Provide pKd, tested on AKT2, for CCCc1ccc(S(=O)(=O)NC2CCN(c3ccnc(Nc4ccc(F)cc4)n3)C2)cc1 (centres unmarked) [GSK1379715] .
Key: < 5.00

====

Recorded %Inh for the following molecules
System: MKNK1
conditions: concentration: 1 μM, replicates: in singlicate; n = 1
Your answer is read as %, so omit the unit and give the number.

Look over these answered cases.
Exercise: Write down %Inh measured for item `NC(=O)c1nnc2ccccc2c1N`
Key: 12

Exercise: Write down %Inh measured for item `Cc1c(Cn2ccn3c(=O)cc(N4CCOCC4)nc23)cccc1C(F)(F)F`
Key: 0

Exercise: Write down %Inh measured for item CCCc1ccc(S(=O)(=O)NC2CCN(c3ccnc(Nc4ccc(F)cc4)n3)C2)cc1 (stereo not drawn)
Key: 0

Please turn your attention to the following entry.
Exercise: Write down %Inh measured for item `Cn1ccc2ncnc(Oc3ccc(Nc4nc5ccccc5[nH]4)cc3)c21`
Key: 0

====

Test system: CDC2L5
Construct: gene CDK13
Recorded Kd for the following compounds

Exercise: Write down Kd measured for item CCn1c(-c2ccccn2)nc2cnccc21 [SB-736398]
Key: > 10 µM

***
Exercise: Write down Kd measured for item CCCc1ccc(S(=O)(=O)NC2CCN(c3ccnc(Nc4ccc(F)cc4)n3)C2)cc1 (centres unmarked) [GSK1379715]
Key: > 10 µM

====

Recorded %Inh for the following compounds
Test system: PHKG2
conditions: concentration: 1 μM, replicates: in singlicate; n = 1
Your answer is read as %, so omit the unit and give the number.

Look over these answered cases.
Exercise: Write down %Inh measured for item `COC(=O)c1c(-c2ccccc2)c2cc(C(=O)O)ccc2c(=O)n1Cc1ccccc1`
Key: 24

Exercise: Write down %Inh measured for item Cn1cncc1-c1ccc2ncnc(Nc3ccc(OCc4ccccc4)cc3)c2c1 [GW320571]
Key: 1

Exercise: Write down %Inh measured for item COc1ccc2nc(-c3cccc(C)n3)nc(Nc3ccncc3)c2c1 [GSK204919]
Key: 0

Please turn your attention to the following entry.
Exercise: Write down %Inh measured for item Cc1csc(-c2nc(Nc3ccncc3)c3ccccc3n2)n1 [GW869640]
Key: 1

====

System: GCN2(Kin.Dom.2,S808G)
Construct: gene EIF2AK4
conditions: concentration: 1 μM, replicates: in singlicate; n = 1
Recorded %Inh for the following compounds
Your answer is read as %, so omit the unit and give the number.

Exercise: Provide %Inh, tested on GCN2(Kin.Dom.2,S808G), for Cc1nnc(-c2ccc3occ(-c4ccc(S(C)=O)cc4)c3c2)[nH]1 (stereo not drawn) .
Key: 0

Exercise: Provide %Inh, tested on GCN2(Kin.Dom.2,S808G), for O=C(Nc1n[nH]c2cc(-c3cccc(F)c3F)ccc12)C1CC1 [SB-733894] .
Key: 0

Exercise: Provide %Inh, tested on GCN2(Kin.Dom.2,S808G), for `Cn1ccc2ncnc(Oc3ccc(NC(=O)Nc4ccccc4)cc3)c21` .
Key: 11

Exercise: Provide %Inh, tested on GCN2(Kin.Dom.2,S808G), for Nc1nc(-c2nccs2)c(-c2ccnc3ccccc23)s1 [GW693542] .
Key: 17

Exercise: Provide %Inh, tested on GCN2(Kin.Dom.2,S808G), for COc1ccccc1CNC(=O)c1cc(C(=O)c2ccccc2C)c[nH]1 [GSK364507] .
Key: 9

Please turn your attention to the following entry.
Exercise: Provide %Inh, tested on GCN2(Kin.Dom.2,S808G), for CN(C)CCN(C)C(=O)c1cc(-c2ccncc2)c(-c2ccc(Cl)c(O)c2)o1.Cl.Cl [SB-710397] .
Key: 0

====

System: FLT4
conditions: concentration: 1 μM, replicates: in singlicate; n = 1
quantity.kind: %Inh (%)
Your answer is read as %, so omit the unit and give the number.

Exercise: Write down %Inh measured for item Cc1cc(N2Cc3ccccc3C2)nc(Nc2ccc(S(=O)(=O)N3CCOCC3)cc2)n1.Cl [GSK1669917]
Key: 3

Exercise: Write down %Inh measured for item `Cc1cccc(-c2nc(-c3ccc(S(C)(=O)=O)cc3)sc2-c2ccnc(NCCc3ccccc3)c2)c1`
Key: 7

Exercise: Write down %Inh measured for item Nc1ncnc2[nH]c(-c3ccccc3)nc12 [AH5015]
Key: 0

Exercise: Write down %Inh measured for item O=c1cc(N2CCOCC2)nc2n(Cc3cccc(Cl)c3Cl)ccn12 [GSK2286295]
Key: 3

Exercise: Write down %Inh measured for item COc1ccc2nc(-c3cccc(C)n3)nc(Nc3ccncc3)c2c1 [GSK204919]
Key: 5

Exercise: Write down %Inh measured for item `Cn1ccc2ncnc(Oc3ccc(NC(=O)Nc4ccccc4)cc3)c21`
Key: 15

Exercise: Write down %Inh measured for item `CC(C)(C)c1ccc(C(=O)Nc2cn3cc(-c4cccnc4)ccc3n2)cc1`
Key: 16

Exercise: Write down %Inh measured for item COc1ccc(CNC(=O)NC2CCN(c3ccnc(Nc4cc(OC)c(OC)c(OC)c4)n3)C2)cc1 (stereo not drawn) [GSK1379748]
Key: 26

Please turn your attention to the following entry.
Exercise: Write down %Inh measured for item Cc1ccc(C(=O)Nc2ccc(Nc3ccnc4cc(-c5ccccn5)ccc34)cc2O)cc1.Cl [GW440146]
Key: 0

====

Test system: TAOK1
conditions: concentration: 1 μM, replicates: in singlicate; n = 1
quantity.kind: %Inh (%)
Your answer is read as %, so omit the unit and give the number.

Look over these answered cases.
Exercise: Write down %Inh measured for item `COc1ccc(Nc2nccc(-c3cccc(NC(=O)c4cc5cc(F)ccc5[nH]4)c3)n2)cc1`
Key: 2

Exercise: Write down %Inh measured for item `CN(C)CCN(C)C(=O)c1cc(-c2ccncc2)c(-c2ccc(Cl)c(O)c2)o1.Cl.Cl`
Key: 0

Exercise: Write down %Inh measured for item `Cc1csc(-c2nc(Nc3ccncc3)c3ccccc3n2)n1`
Key: 36

Exercise: Write down %Inh measured for item `O=S(=O)(c1ccc(-c2ccnc3[nH]ccc23)cc1)N1CCCC1`
Key: 0

Exercise: Write down %Inh measured for item `CS(=O)(=O)c1ccc(-c2nc3n(c2-c2ccncc2)CCC3)cc1`
Key: 0

Exercise: Write down %Inh measured for item `COc1ccccc1CNC(=O)c1cc(C(=O)c2ccccc2C)c[nH]1`
Key: 0

***
Exercise: Write down %Inh measured for item `Cl.O=C(Nc1cccc(-c2nn3ncccc3c2-c2ccnc(Nc3cccnc3)n2)c1)c1c(F)cccc1F`
Key: 5

Exercise: Write down %Inh measured for item `Cc1ccc(C(=O)Nc2ccc(Nc3ccnc4cc(-c5ccccn5)ccc34)cc2O)cc1.Cl`
Key: 0

Exercise: Write down %Inh measured for item `CN1C(=O)C(Nc2ccc(Cl)c(C(=O)O)c2)=C(c2ccc(Cl)cc2)C1=O`
Key: 11

Exercise: Write down %Inh measured for item CCCc1ccc(S(=O)(=O)NC2CCN(c3ccnc(Nc4ccc(F)cc4)n3)C2)cc1 (stereo not shown)
Key: 0

Exercise: Write down %Inh measured for item `COc1ccc2nc(-c3cccc(C)n3)nc(Nc3ccncc3)c2c1`
Key: 0

Exercise: Write down %Inh measured for item `CC(=O)Nc1nc2cnc(Nc3cc(NC(=O)c4cccc(CCC#N)c4)ccc3C)nc2s1`
Key: 0

Exercise: Write down %Inh measured for item COc1cc(Nc2nccc(N3CCC(NC(=O)Nc4cc(C)ccc4C)C3)n2)cc(OC)c1OC (stereo not shown)
Key: 0

Exercise: Write down %Inh measured for item `Cc1cccc(-c2nc(C)cc(Nc3ccncc3)n2)n1`
Key: 0
